Biological target: COX-2 (Homo sapiens, UniProt P35354)
Sequence (P35354 18-604): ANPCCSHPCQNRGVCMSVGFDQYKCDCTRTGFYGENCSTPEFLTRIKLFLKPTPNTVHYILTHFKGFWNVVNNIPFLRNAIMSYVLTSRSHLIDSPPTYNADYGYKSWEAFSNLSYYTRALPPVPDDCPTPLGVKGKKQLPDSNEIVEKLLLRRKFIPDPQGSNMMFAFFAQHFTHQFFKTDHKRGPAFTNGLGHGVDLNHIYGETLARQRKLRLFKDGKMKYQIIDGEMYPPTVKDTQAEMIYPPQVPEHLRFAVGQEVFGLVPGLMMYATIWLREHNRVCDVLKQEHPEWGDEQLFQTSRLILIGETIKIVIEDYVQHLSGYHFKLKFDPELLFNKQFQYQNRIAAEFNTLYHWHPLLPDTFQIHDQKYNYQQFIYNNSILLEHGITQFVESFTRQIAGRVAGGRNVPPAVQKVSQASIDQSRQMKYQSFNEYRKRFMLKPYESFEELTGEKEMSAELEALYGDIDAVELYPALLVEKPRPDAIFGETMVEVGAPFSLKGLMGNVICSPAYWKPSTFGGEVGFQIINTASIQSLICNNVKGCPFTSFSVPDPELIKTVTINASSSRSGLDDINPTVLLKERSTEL
pIC50: −log10 of the molar value.
Assign class by pIC50: not lower than 6 means met; lower than 6 means not met.

[
  {
    "MOLECULE": "O=C1NC(=O)C(=Cc2cn(CCCCn3c4ccccc4c(=O)c4ccccc43)c3ccccc23)C(=O)N1 [Compound 4b]",
    "TEST SYSTEM": "COX-2 (Homo sapiens, UniProt P35354)",
    "ASSIGNED CLASS": "not met"
  },
  {
    "MOLECULE": "CN1C(=O)C(=Cc2cn(C[C@H](O)Cn3c4ccccc4c(=O)c4ccccc43)c3ccccc23)C(=O)N(C)C1=O [(S)-3b]",
    "TEST SYSTEM": "COX-2 (Homo sapiens, UniProt P35354)",
    "ASSIGNED CLASS": "met"
  },
  {
    "MOLECULE": "O=C1Nc2ccccc2C1=Cc1cn(CCCCn2c3ccccc3c(=O)c3ccccc32)c2ccccc12 [Compound 4d]",
    "TEST SYSTEM": "COX-2 (Homo sapiens, UniProt P35354)",
    "ASSIGNED CLASS": "not met"
  },
  {
    "MOLECULE": "O=C1C(=Cc2cn(C[C@H](O)Cn3c4ccccc4c(=O)c4ccccc43)c3ccccc23)c2ccccc2N1c1c(Cl)cccc1Cl [(S)-3d]",
    "TEST SYSTEM": "COX-2 (Homo sapiens, UniProt P35354)",
    "ASSIGNED CLASS": "not met"
  },
  {
    "MOLECULE": "CN1C(=O)C(=Cc2cn(C[C@@H](O)Cn3c4ccccc4c(=O)c4ccccc43)c3ccccc23)C(=O)N(C)C1=O [(R)-3b]",
    "TEST SYSTEM": "COX-2 (Homo sapiens, UniProt P35354)",
    "ASSIGNED CLASS": "met"
  },
  {
    "MOLECULE": "O=C1Nc2ccccc2C1=Cc1cn(C[C@@H](O)Cn2c3ccccc3c(=O)c3ccccc32)c2ccccc12 [(R)-3c]",
    "TEST SYSTEM": "COX-2 (Homo sapiens, UniProt P35354)",
    "ASSIGNED CLASS": "not met"
  },
  {
    "MOLECULE": "O=C1NC(=O)C(=Cc2cn(CCCn3c4ccccc4c(=O)c4ccccc43)c3ccccc23)C(=O)N1 [Compound 4a]",
    "TEST SYSTEM": "COX-2 (Homo sapiens, UniProt P35354)",
    "ASSIGNED CLASS": "met"
  }
]

Where do the numbers come from? From paper PMC6030096.
